Item-by-item account of combination Emax
Test system: ES1 (Ewing's Sarcoma)
test name: combination Emax (second highest fraction inhibited in the dose matrix, 72 h); higher = more inhibition; extreme values may be limits of the assay
measurement label: combination Emax

>>> value_measured("N#Cc1cnc(Nc2cc(NC[C@H]3CNCCO3)c(C(F)(F)F)cn2)cn1 [SRA737] + CCc1c2c(nc3ccc(O)cc13)-c1cc3c(c(=O)n1C2)COC(=O)[C@]3(O)CC [SN-38] (first compound max 10 µM, 7x7, partner max 0.3 µM)")
1
>>> value_measured("CN(CCO)CC[C@H](CSc1ccccc1)Nc1ccc(S(=O)(=O)NC(=O)c2ccc(N3CCC([C@@H](O)c4ccccc4-c4ccc(Cl)cc4)CC3)cc2)cc1S(=O)(=O)C(F)(F)F [AZD4320] + Nc1ccn([C@@H]2O[C@H](CO)[C@@H](O)C2(F)F)c(=O)n1 [Gemcitabine] (first compound max 1 µM, 7x7, partner max 0.3 µM)")
1
>>> value_measured("CC1(C)CCC(CN2CCN(c3ccc(C(=O)NS(=O)(=O)c4ccc(NCC5CCOCC5)c([N+](=O)[O-])c4)c(Oc4cnc5[nH]ccc5c4)c3)CC2)=C(c2ccc(Cl)cc2)C1 [Venetoclax] + Cn1cnc2c(F)c(Nc3ccc(Br)cc3Cl)c(C(=O)NOCCO)cc21 [Selumetinib] (first compound max 1 µM, 7x7, partner max 3 µM)")
0.338

====

The compounds listed here are annotated with their combination Emax.
Tested on: COLO-678 (Colorectal Carcinoma)
test name: combination Emax (second highest fraction inhibited in the dose matrix, 72 h); higher = more inhibition; extreme values may be limits of the assay
measurement label: combination Emax

>>> value_measured("CC1(C)CCC(CN2CCN(c3ccc(C(=O)NS(=O)(=O)c4ccc(NCC5CCOCC5)c([N+](=O)[O-])c4)c(Oc4cnc5[nH]ccc5c4)c3)CC2)=C(c2ccc(Cl)cc2)C1 [Venetoclax] + C[C@@H]1COCCN1C2=NC(=NC(=C2)C3(CC3)[S@](=N)(=O)C)C4=C5C=CNC5=NC=C4 [AZD6738] (first compound max 1 µM, 7x7, partner max 10 µM)")
0.164
>>> value_measured("C=CCn1c(=O)c2cnc(Nc3ccc(N4CCN(C)CC4)cc3)nc2n1-c1cccc(C(C)(C)O)n1 [AZD1775] + C[C@@H]1COCCN1C2=NC(=NC(=C2)C3(CC3)[S@](=N)(=O)C)C4=C5C=CNC5=NC=C4 [AZD6738] (first compound max 1 µM, partner max 10 µM)")
0.199

====

Test system: KM12 (Colorectal Carcinoma)
test name: combination Emax (second highest fraction inhibited in the dose matrix, 72 h); higher = more inhibition; extreme values may be limits of the assay
measurement label: combination Emax

>>> value_measured("CC1(C)CCC(CN2CCN(c3ccc(C(=O)NS(=O)(=O)c4ccc(NCC5CCOCC5)c([N+](=O)[O-])c4)c(Oc4cnc5[nH]ccc5c4)c3)CC2)=C(c2ccc(Cl)cc2)C1 [Venetoclax] + Cn1cnc2c(F)c(Nc3ccc(Br)cc3Cl)c(C(=O)NOCCO)cc21 [Selumetinib] (first compound max 1 µM, 7x7, partner max 3 µM)")
0.555
>>> value_measured("CN(CCO)CC[C@H](CSc1ccccc1)Nc1ccc(S(=O)(=O)NC(=O)c2ccc(N3CCC([C@@H](O)c4ccccc4-c4ccc(Cl)cc4)CC3)cc2)cc1S(=O)(=O)C(F)(F)F [AZD4320] + C[C@@H](Nc1cc(F)cc(F)c1)c1cc(C(=O)N(C)C)cc2c(=O)cc(N3CCOCC3)oc12 [AZD8186] (first compound max 1 µM, 7x7, partner max 3 µM)")
0.315
>>> value_measured("CN(CCO)CC[C@H](CSc1ccccc1)Nc1ccc(S(=O)(=O)NC(=O)c2ccc(N3CCC([C@@H](O)c4ccccc4-c4ccc(Cl)cc4)CC3)cc2)cc1S(=O)(=O)C(F)(F)F [AZD4320] + Cc1cc2ncnn2cc1Nc1ncc2c(n1)n(C1CCOCC1)c(=O)n2C [AZD7648] (first compound max 1 µM, 7x7, partner max 10 µM)")
0.226
>>> value_measured("COc1cccc(OCCCN)c1-c1cc(Nc2cnc(C#N)cn2)n[nH]1 [Prexasertib] + CCc1c2c(nc3ccc(O)cc13)-c1cc3c(c(=O)n1C2)COC(=O)[C@]3(O)CC [SN-38] (first compound max 1 µM, 7x7, partner max 0.3 µM)")
0.939

====

Quick list: Bliss excess per entry.
Tested on: BL-41 (Burkitt's Lymphoma);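 note: after 72 h of two-drug dosing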
test name: Bliss excess, mean over the matrix (fraction); higher = more synergy
measurement label: Bliss excess

>>> value_measured("CC1(C)CCC(CN2CCN(c3ccc(C(=O)NS(=O)(=O)c4ccc(NCC5CCOCC5)c([N+](=O)[O-])c4)c(Oc4cnc5[nH]ccc5c4)c3)CC2)=C(c2ccc(Cl)cc2)C1 [Venetoclax] + C1CN(CCC1(C(=O)N[C@@H](CCO)C2=CC=C(C=C2)Cl)N)C3=NC=NC4=C3C=CN4 [Capivasertib] (first compound max 1 µM, 7x7, partner max 3 µM)")
-0.0058
>>> value_measured("Cc1nc(Nc2ncc(C(=O)Nc3c(C)cccc3Cl)s2)cc(N2CCN(CCO)CC2)n1 [Dasatinib] + CC(=O)Nc1cccc(-n2c(=O)n(C3CC3)c(=O)c3c(Nc4ccc(I)cc4F)n(C)c(=O)c(C)c32)c1 [Trametinib] (first compound max 2 µM, 7x7, partner max 1 µM)")
0.0075
>>> value_measured("CCc1c2c(nc3ccc(O)cc13)-c1cc3c(c(=O)n1C2)COC(=O)[C@]3(O)CC [SN-38] + CN(C)CCCOc1ccc(-c2ccc3ncc4c(c3c2)n(C2CCOCC2)c(=O)n4C)cn1 [AZD0156] (first compound max 0.3 µM, 7x7, partner max 1 µM)")
0.0556
>>> value_measured("Cc1c2c(nn1C)CSCc1cc(n(C)n1)CSc1cc(c3ccccc3c1)OCCCc1c(C(=O)O)n(C)c3c-2c(Cl)ccc13 [AZD5991] + CCN(CCO)CCCOc1ccc2c(Nc3cc(CC(=O)Nc4cccc(F)c4)[nH]n3)ncnc2c1 [AZD2811] (first compound max 1 µM, 7x7, partner max 1 µM)")
-0.0295
>>> value_measured("Cn1cnc2c(F)c(Nc3ccc(Br)cc3Cl)c(C(=O)NOCCO)cc21 [Selumetinib] + C[C@@H]1COCCN1C2=NC(=NC(=C2)C3(CC3)[S@](=N)(=O)C)C4=C5C=CNC5=NC=C4 [AZD6738] (first compound max 10 µM, 7x7, partner max 10 µM)")
-0.0299
>>> value_measured("CC1(C)CCC(CN2CCN(c3ccc(C(=O)NS(=O)(=O)c4ccc(NCC5CCOCC5)c([N+](=O)[O-])c4)c(Oc4cnc5[nH]ccc5c4)c3)CC2)=C(c2ccc(Cl)cc2)C1 [Venetoclax] + C=CCn1c(=O)c2cnc(Nc3ccc(N4CCN(C)CC4)cc3)nc2n1-c1cccc(C(C)(C)O)n1 [AZD1775] (first compound max 1 µM, partner max 1 µM)")
-0.0319
>>> value_measured("CN(C)CCCOc1ccc(-c2ccc3ncc4c(c3c2)n(C2CCOCC2)c(=O)n4C)cn1 [AZD0156] + CCN(CCO)CCCOc1ccc2c(Nc3cc(CC(=O)Nc4cccc(F)c4)[nH]n3)ncnc2c1 [AZD2811] (first compound max 1 µM, 7x7, partner max 1 µM)")
0.0177
>>> value_measured("COc1cccc(OCCCN)c1-c1cc(Nc2cnc(C#N)cn2)n[nH]1 [Prexasertib] + Cc1cc2ncnn2cc1Nc1ncc2c(n1)n(C1CCOCC1)c(=O)n2C [AZD7648] (first compound max 1 µM, 7x7, partner max 10 µM)")
-0.0265
>>> value_measured("O=C(c1cc(Cc2n[nH]c(=O)c3ccccc23)ccc1F)N1CCN(C(=O)C2CC2)CC1 [Olaparib] + Cc1c2c(nn1C)CSCc1cc(n(C)n1)CSc1cc(c3ccccc3c1)OCCCc1c(C(=O)O)n(C)c3c-2c(Cl)ccc13 [AZD5991] (first compound max 10 µM, 7x7, partner max 1 µM)")
0.0012
>>> value_measured("CCN(CCO)CCCOc1ccc2c(Nc3cc(CC(=O)Nc4cccc(F)c4)[nH]n3)ncnc2c1 [AZD2811] + C=CCn1c(=O)c2cnc(Nc3ccc(N4CCN(C)CC4)cc3)nc2n1-c1cccc(C(C)(C)O)n1 [AZD1775] (first compound max 1 µM, partner max 1 µM)")
0.0862
>>> value_measured("C[C@@H]1COCCN1c1cc(C2([S@](C)(=N)=O)CC2)nc(-c2ccnc3[nH]ccc23)n1 [AZD6738] + C1CC(C1)(C(=O)[O-])C(=O)[O-].N.N.[Pt+2] [Carboplatin] (first compound max 10 µM, 7x7, partner max 10 µM)")
-0.0271
>>> value_measured("COc1cccc2c1C(=O)c1c(O)c3c(c(O)c1C2=O)C[C@@](O)(C(=O)CO)C[C@@H]3O[C@H]1C[C@H](N)[C@H](O)[C@H](C)O1 [Doxorubicin] + Cc1cc2ncnn2cc1Nc1ncc2c(n1)n(C1CCOCC1)c(=O)n2C [AZD7648] (first compound max 1 µM, 7x7, partner max 10 µM)")
0.0714
>>> value_measured("CC(=O)Nc1cccc(-n2c(=O)n(C3CC3)c(=O)c3c(Nc4ccc(I)cc4F)n(C)c(=O)c(C)c32)c1 [Trametinib] + Cc1nc(-c2cn3c(n2)-c2ccc(-c4cnn(C(C)(C)C(N)=O)c4)cc2OCC3)n(C(C)C)n1 [Taselisib] (first compound max 1 µM, 7x7, partner max 10 µM)")
0.0485
>>> value_measured("CN(CCO)CC[C@H](CSc1ccccc1)Nc1ccc(S(=O)(=O)NC(=O)c2ccc(N3CCC([C@@H](O)c4ccccc4-c4ccc(Cl)cc4)CC3)cc2)cc1S(=O)(=O)C(F)(F)F [AZD4320] + Cc1cc2ncnn2cc1Nc1ncc2c(n1)n(C1CCOCC1)c(=O)n2C [AZD7648] (first compound max 1 µM, 7x7, partner max 10 µM)")
0.0115
